# target-under-test: T1, cyno TF ECD-His (cTF-his) (monkey (cyno))
# T1 construct: also called bio-cTF-his; monkey TF-His protein
# T1 chain: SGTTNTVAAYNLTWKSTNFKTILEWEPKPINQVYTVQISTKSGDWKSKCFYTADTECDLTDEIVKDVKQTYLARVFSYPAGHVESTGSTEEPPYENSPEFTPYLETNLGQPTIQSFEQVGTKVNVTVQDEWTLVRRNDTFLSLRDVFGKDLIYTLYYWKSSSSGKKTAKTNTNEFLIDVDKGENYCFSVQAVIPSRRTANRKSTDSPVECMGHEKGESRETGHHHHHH
# procedure-details: SPR Biacore T200, antibody on Protein A chip, TF-His as analyte, 1:1 model
assay-metric: Kd

binder: hu67Y116 (antibody, human IgG1, kappa, V domains shown) VH: EVQLQESGPGLVKPSQTLSLTCTVSGFSLTNYGVNWIRQSPGKGLEWIGVIWSRGNTDYNAAFKSRVTISKDTSKNQVSLKLSSVTAADTAVYYCARKDAIVATDALDYWGQGTTVTVSS VL: DIQMTQSPSSLSASVGDRVTITCKASQDVQTAVAWYQQKPGKAPKLLIYSTHYRYTGVPSRFSGSGSGTDFTFTISSLQPEDIATYYCLQSYTLPFSFGGGTKVEIKR
test-value: 27.1 nM
//
binder: hu67-5 (antibody, human IgG1, kappa, V domains shown) VH: EVTLKQSGPVLVKPTQTLTLTCTVSGFSLTNYGVNWIRQPPRKALEWLAVIWSRGNTDYNAAFISRLTISKDTSKSQVVLKMTNMDPVDTATYYCARKDAVVATDALDYWGQGTTVTVSS VL: DIVMTQSPKSLAVSLGERATINCKASQDVSTAVAWYQQKPGQSPKLLIYSTSYRYTGVPDRFSGSGSGTDFTFTISSLQAEDVAVYYCQQHYSTPYTFGGGTKVEIKR
test-value: 15.1 nM
//
binder: hu67-3 (antibody, human IgG1, kappa, V domains shown) VH: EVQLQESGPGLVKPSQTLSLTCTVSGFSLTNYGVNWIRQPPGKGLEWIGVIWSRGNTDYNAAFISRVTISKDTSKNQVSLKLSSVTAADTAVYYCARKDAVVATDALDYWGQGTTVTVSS VL: DIVMTQSPKSLAVSLGERATINCKASQDVSTAVAWYQQKPGQPPKLLIYSTSYRYTGVPDRFSGSGSGTDFTLTISSLQAEDVAVYYCQQHYSTPYTFGGGTKVEIKR
test-value: 13.5 nM
